Target: GDP-bound KRAS wild-type protein (Homo sapiens)
Sequence (P01116 whole entry): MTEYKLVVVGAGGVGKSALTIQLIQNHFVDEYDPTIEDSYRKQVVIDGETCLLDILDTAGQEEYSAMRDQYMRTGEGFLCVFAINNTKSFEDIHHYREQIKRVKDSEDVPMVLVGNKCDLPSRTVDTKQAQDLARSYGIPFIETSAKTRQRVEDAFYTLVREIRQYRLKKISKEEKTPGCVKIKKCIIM
Assay: Binding to KRAS by surface plasmon resonance (SPR), Single Cycle Kinetics
Conditions: SPR Single Cycle Kinetics, GDP-bound KRAS wild-type protein, 1:1 binding model; read-out: KRAS KD
Where a SMILES comes first, the peptide text is derived from it. Bridges are numbered along the chain shown (N, C = ends). [ ]: non-standard residue; d: D form. The star is where a group is joined. hPhe(3,5-F2-4-CF3) = N[C@@H](CCc1cc(F)c(C(F)(F)F)c(F)c1)C(=O)O; hPhe(3-Cl-4-CF3) = N[C@@H](CCc1ccc(C(F)(F)F)c(Cl)c1)C(=O)O; NPrPhe(4-CF3) = CCCN[C@@H](Cc1ccc(C(F)(F)F)cc1)C(=O)O; NMePhe(4-Me) = CN[C@@H](Cc1ccc(C)cc1)C(=O)O; NMeGly(cPent) = CN[C@H](C(=O)O)C1CCCC1; NMeD = CN[C@@H](CC(=O)O)C(=O)O; NMeL = CN[C@@H](CC(C)C)C(=O)O; αMeL = CC(C)C[C@](C)(N)C(=O)O; Morpholide = C1CN(*)CCO1; NMeA = CN[C@@H](C)C(=O)O; Ac5c = NC1(C(=O)O)CCCC1; Aze = O=C(O)[C@@H]1CCN1; NPrGly = CCCNCC(=O)O; NEtG = CCNCC(=O)O; Sar = CNCC(=O)O
Quick reference: Kd of the listed items.

Below are worked cases with known answers.
IN: State its Kd for this compound: CC[C@H](C)[C@@H]1NC(=O)[C@H](CC(C)C)N(C)C(=O)C[C@@H](C(=O)N2CCOCC2)N(C)C(=O)[C@H](C2CCCC2)N(C)C(=O)C2(CCCC2)NC(=O)[C@@H]2CCCN2C(=O)[C@H](CCc2ccc(C(F)(F)F)c(Cl)c2)NC(=O)CN(CC)C(=O)[C@H](Cc2ccc(C)cc2)N(C)C(=O)[C@@H]2CCN2C(=O)[C@H](C)N(C)C1=O [PP0004] ([NMeL]I[NMeA][Aze][NMePhe(4-Me)][NEtG][hPhe(3-Cl-4-CF3)]P[Ac5c][NMeGly(cPent)][NMeD]-Morpholide; lactam N-11)
OUT: 2.4 nM

IN: Hello, please tell me recorded Kd for this one: CCCN1C(=O)CN(C)C(=O)CN(C)C(=O)[C@H]([C@@H](C)CC)NC(=O)[C@H](CC(C)C)N(C)C(=O)C[C@@H](C(=O)N(C)C)N(C)C(=O)[C@H](C2CCCC2)N(C)C(=O)[C@](C)(CC(C)C)NC(=O)[C@@H]2CCCN2C(=O)[C@H](CCc2cc(F)c(C(F)(F)F)c(F)c2)NC(=O)CN(C)C(=O)[C@@H]1Cc1ccc(C(F)(F)F)cc1 [PP0738] ([NMeL]I[Sar][Sar][NPrPhe(4-CF3)][Sar][hPhe(3,5-F2-4-CF3)]P[αMeL][NMeGly(cPent)][NMeD]-NMe2; lactam N-11)
OUT: 0.64 nM

IN: Hello, please tell me recorded Kd for this one: CCCN1CC(=O)NC2(CCCC2)C(=O)N(C)[C@@H](C2CCCC2)C(=O)N(C)[C@H](C(=O)N2CCOCC2)CC(=O)N(C)[C@@H](CC(C)C)C(=O)N[C@@H]([C@@H](C)CC)C(=O)N(C)[C@@H](C)C(=O)N2CC[C@H]2C(=O)N(CCC)[C@@H](Cc2ccc(C(F)(F)F)cc2)C(=O)N(C)CC(=O)N[C@@H](CCc2ccc(C(F)(F)F)c(Cl)c2)C1=O [PP0288] ([NMeL]I[NMeA][Aze][NPrPhe(4-CF3)][Sar][hPhe(3-Cl-4-CF3)][NPrGly][Ac5c][NMeGly(cPent)][NMeD]-Morpholide; lactam N-11)
OUT: 0.42 nM

Next:
IN: Determine from records and report Kd for CCCN1C(=O)CN(C)C(=O)CN(C)C(=O)[C@H]([C@@H](C)CC)NC(=O)[C@H](CC(C)C)N(C)C(=O)C[C@@H](C(=O)N2CCOCC2)N(C)C(=O)[C@H](C2CCCC2)N(C)C(=O)[C@](C)(CC(C)C)NC(=O)[C@@H]2CCCN2C(=O)[C@H](CCc2cc(F)c(C(F)(F)F)c(F)c2)NC(=O)CN(C)C(=O)[C@@H]1Cc1ccc(C(F)(F)F)cc1 [PP0759] ([NMeL]I[Sar][Sar][NPrPhe(4-CF3)][Sar][hPhe(3,5-F2-4-CF3)]P[αMeL][NMeGly(cPent)][NMeD]-Morpholide; lactam N-11)
OUT: 2.7 nM
